target-entity: CDK9/CycT1 (Homo sapiens, UniProt P50750)
Construct: Recombinant full-length His-tagged human CDK9 and CycT1; His; purchased Invitrogen PV4131; host or cells: insect cells
Sequence (P50750 whole entry): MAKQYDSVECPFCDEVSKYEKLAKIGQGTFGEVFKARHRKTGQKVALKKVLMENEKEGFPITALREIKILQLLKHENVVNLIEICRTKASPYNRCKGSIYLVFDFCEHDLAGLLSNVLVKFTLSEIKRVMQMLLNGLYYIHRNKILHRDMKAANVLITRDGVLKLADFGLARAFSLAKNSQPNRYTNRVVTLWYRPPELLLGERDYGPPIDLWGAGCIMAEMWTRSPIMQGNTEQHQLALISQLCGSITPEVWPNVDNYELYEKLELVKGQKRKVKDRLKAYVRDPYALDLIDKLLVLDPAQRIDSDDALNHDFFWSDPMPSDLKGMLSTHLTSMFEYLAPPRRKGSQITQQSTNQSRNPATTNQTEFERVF
Sequence (O60563 whole entry partner): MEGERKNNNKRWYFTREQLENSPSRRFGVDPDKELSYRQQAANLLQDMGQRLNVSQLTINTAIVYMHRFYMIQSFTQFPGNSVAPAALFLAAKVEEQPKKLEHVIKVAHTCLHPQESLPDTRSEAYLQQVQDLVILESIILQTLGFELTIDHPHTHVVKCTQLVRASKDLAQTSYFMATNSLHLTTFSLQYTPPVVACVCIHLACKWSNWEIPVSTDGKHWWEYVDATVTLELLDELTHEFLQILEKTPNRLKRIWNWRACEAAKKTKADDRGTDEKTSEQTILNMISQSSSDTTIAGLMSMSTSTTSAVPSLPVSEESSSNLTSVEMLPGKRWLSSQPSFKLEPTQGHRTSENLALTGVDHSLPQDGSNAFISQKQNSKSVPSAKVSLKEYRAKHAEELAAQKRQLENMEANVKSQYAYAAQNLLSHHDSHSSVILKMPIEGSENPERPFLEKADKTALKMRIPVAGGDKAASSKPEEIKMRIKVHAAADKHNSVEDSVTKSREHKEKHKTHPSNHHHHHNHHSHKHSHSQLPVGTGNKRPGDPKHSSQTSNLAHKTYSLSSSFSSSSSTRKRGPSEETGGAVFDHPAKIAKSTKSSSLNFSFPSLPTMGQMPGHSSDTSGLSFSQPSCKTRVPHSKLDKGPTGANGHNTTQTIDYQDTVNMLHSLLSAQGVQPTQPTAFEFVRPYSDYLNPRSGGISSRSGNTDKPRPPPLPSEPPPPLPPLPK
test: CDK9/CycT1 kinase assay (Method 1a, TR-FRET)
Type: biochemical
test-context: ratio of Method 2 to Method 1a values
Excerpt: 1a. CDK9/CyeT1 Kinase Assay: CDK9/CycT1-inhibitory activity of compounds of the present invention was quantified employing the CDK9/CycT1 TR-FRET assay as described in the following paragraphs: Recombinant full-length His-tagged human CDK9 and CycT1, expressed in insect cells and purified by Ni-NTA affinity chromatography, were purchased from Invitrogen (Cat. No PV4131). […]
measurement-type: Selectivity CDK9 over CDK2: IC50 (CDK2)/IC50 (CDK9)

{"compound": "CS(=O)(Cc1ccnc(Nc2cc(-c3ccc(F)c4ccoc34)c(F)cn2)c1)=NC#N (racemic)", "recorded-measurement": 56}
{"compound": "CC(=O)N=S(C)(=O)Cc1ccnc(Nc2cc(-c3ccc(F)c4ccoc34)c(F)cn2)c1 (racemic)", "recorded-measurement": 61}
{"compound": "CS(=N)(=O)Cc1cc(Nc2cc(-c3ccc(F)c4ccoc34)c(F)cn2)nc(C(F)(F)F)c1 (racemic)", "recorded-measurement": 3.6}
{"compound": "CS(=O)(Cc1cc(F)nc(Nc2cc(-c3ccc(F)c4ccoc34)c(F)cn2)c1)=NC(=O)C(F)(F)F (racemic)", "recorded-measurement": 54}
{"compound": "Cc1cc(CS(C)(=N)=O)cc(Nc2cc(-c3ccc(F)c4ccoc34)c(F)cn2)n1 (racemic)", "recorded-measurement": 19}
{"compound": "CCNC(=O)N=S(C)(=O)Cc1ccnc(Nc2cc(-c3ccc(F)c4ccoc34)c(F)cn2)c1 (racemic)", "recorded-measurement": 44}
{"compound": "CS(=N)(=O)Cc1ccnc(Nc2cc(-c3ccc(F)c4ccoc34)c(F)cn2)c1 (racemic)", "recorded-measurement": 38}
